B1: TPR t1 (parent)
chain: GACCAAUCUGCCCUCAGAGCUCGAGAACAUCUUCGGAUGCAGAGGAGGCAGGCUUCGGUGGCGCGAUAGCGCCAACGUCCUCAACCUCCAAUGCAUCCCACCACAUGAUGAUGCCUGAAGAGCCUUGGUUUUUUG

Variants of: B1
MEASUREMENT DESCRIPTION: polymerase ribozyme fitness, log enrichment relative to wild type (log ratio); higher = more active; in vitro selection for triplet polymerase activity
Entries and their measured polymerase ribozyme fitness (log ratio) follow.
Respond with the number and no other words.

U9C G71A: 0.0862

Consider the variant C12G G117C U126G and give its measured polymerase ribozyme fitness (log ratio).
-3.28

Data provenance is the RNAGym collection of RNA variant scans (doi:10.1073/pnas.2313332121).
